test system: human immunodeficiency virus; assay: XTT anti-HIV assay in CEM-SS cells (strain not stated); type: cell-based; conditions: Human immunodeficiency virus 1, anti-HIV activity, read-out: IC₅₀
recorded.metric: IC50

Query: Would you mind telling me what IC50 value was observed for O=c1[nH]cnc2c1ncn2[C@H]1CC[C@@H](CO)O1 ?
Result: 1000 to 2000 nM

Measured values drawn from patent EP0603031A2 for this set.
